Cited source for all entries: PubChem BioAssay

Property: composite z-score; scope: individual compounds
- SYSTEM: Follistatin-related protein 3 (Homo sapiens)
- EXPERIMENTAL_DETAILS: FSTL3 binders on small-molecule microarrays, primary screen, biochemical, small-molecule microarray, 635 nm fluorescence (AID 1105);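 also: score merges emission near 667 nm and signal to noise per printed spot across three slides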
- MEASUREMENT_CONDITIONS: FSTL3 binding, higher = more signal
Simply state the number, no unit and no words.

The examples below pair each entry with its known result.
{"COMPOUND": "CC(C)(C)OC(=O)CC[C@@]12N=C(c3ccc(OCCCO)cc3)O[C@@H]1c1ccccc1CN(Cc1ccccc1)C2=O", "SYSTEM": "Follistatin-related protein 3 (Homo sapiens)", "REPORTED_VALUE": 0.459}
{"COMPOUND": "C=CCN1C(=O)[C@@]2(O[C@@H](CCn3cc(CCO)nn3)[C@H]([Si](C)(C)c3ccc(OC)cc3)[C@H]2C)c2cc(NC(=O)c3ccc(OC)cc3)ccc21", "SYSTEM": "Follistatin-related protein 3 (Homo sapiens)", "REPORTED_VALUE": 0.571}
{"COMPOUND": "COc1ccc([Si](C)(C)[C@H]2[C@H](CC(=O)N(CCO)Cc3ccccc3)O[C@@]3(C(=O)N(Cc4cccc(N5C(=O)COc6ccccc65)c4)c4ccccc43)[C@@H]2C)cc1", "SYSTEM": "Follistatin-related protein 3 (Homo sapiens)", "REPORTED_VALUE": 0.628}
{"COMPOUND": "O=C(NCC(F)(F)F)[C@@H]1c2ccccc2C(=O)N(C2Cc3ccccc3C2)[C@H]1c1ccc(CO)cc1", "SYSTEM": "Follistatin-related protein 3 (Homo sapiens)", "REPORTED_VALUE": -0.584}
{"COMPOUND": "COCCCNC(=O)[C@@]1(CCS(=O)(=O)c2ccccc2)N=C(c2ccc(OCCCO)cc2)O[C@H]1c1ccccc1CN=[N+]=[N-]", "SYSTEM": "Follistatin-related protein 3 (Homo sapiens)", "REPORTED_VALUE": 0.847}
{"COMPOUND": "C=CCNC(=O)[C@H]1[C@@H]2C(=O)O[C@@H](c3ccccc3)[C@@H](c3ccccc3)N2[C@@H](c2ccccc2OCCO)[C@]12C(=O)N(C(=O)OCCOC)c1ccc(C#CCCO)cc12", "SYSTEM": "Follistatin-related protein 3 (Homo sapiens)", "REPORTED_VALUE": 1.24}
{"COMPOUND": "CCCCCN1CC=CC23O[C@@H]4/C=C\\CCC(C)OC(=O)C4[C@H]2C(=O)N(CCCO)[C@@H]3C1=O (some centres not stated)", "SYSTEM": "Follistatin-related protein 3 (Homo sapiens)", "REPORTED_VALUE": -1.24}
{"COMPOUND": "C[N+](C)(C)CCCC[C@@H]1NC(=O)[C@H]2C[C@@H](C(=O)NCCCCCN)[C@@H](c3cccc(OCCO)c3)N2C1=O", "SYSTEM": "Follistatin-related protein 3 (Homo sapiens)", "REPORTED_VALUE": 0.564}

Entry C=CCN1C(=O)[C@@]2(O[C@@H](CCO)[C@H]([Si](C)(C)c3ccc(OC)cc3)[C@H]2C)c2cc(N(C=O)c3ccccc3)ccc21 ; composite z-score = 0.131

Entry O=C(NC1CC1)[C@@H]1c2ccccc2C(=O)N(Cc2ccccc2C(F)(F)F)[C@H]1c1ccc(CO)cc1 ; composite z-score = 0.471

Entry CC(C)[C@@H](C(=O)O)n1cc(-c2ccccn2)nn1 ; composite z-score = 0.0231

Entry CO[C@H]1O[C@H](CO)[C@@H](OC(=O)Nc2ccccc2)[C@H](OC(=O)Nc2ccccc2-c2ccccc2)[C@@H]1OC(=O)Nc1ccccc1-c1ccccc1 ; composite z-score = 1.16

Entry CC(C)[Si](C#C[Si](C(C)C)(C(C)C)C(C)C)(O[C@H](C)c1cn([C@H](C)c2ccccc2)nn1)C(C)C ; composite z-score = 0.806
